system: Staphylococcus aureus; experiment: Potency index, ratio of vancomycin MIC to compound MIC for antibacterial activity against vancomycin-resistant Staphylococcus aureus VRS12; type: functional

# item_smiles, cmp, Ratio
rows = [
    ("C/C(=N\\NC(=N)N)c1sc(-c2ccc(C#CC3CCCCC3)cc2)nc1C", "=", 8),
    ("CCCCCC#Cc1ccc(-c2nc(C)c(/C(C)=N/NC(=N)N)s2)cc1", "=", 8),
    ("CCCCCCC#Cc1ccc(-c2nc(C)c(/C(C)=N/NC(=N)N)s2)cc1", "=", 8),
    ("C/C(=N\\NC(=N)N)c1sc(-c2ccc(C#Cc3ccccc3)cc2)nc1C", "=", 8),
    ("CCCC#Cc1ccc(-c2nc(C)c(/C(C)=N/NC(=N)N)s2)cc1", "=", 16),
    ("C/C(=N\\NC(=N)N)c1sc(-c2ccc(C#CC(C)(C)C)cc2)nc1C", "=", 4),
    ("C/C(=N\\NC(=N)N)c1sc(-c2ccc(C#CC3CCCC3)cc2)nc1C", "=", 8),
    ("C/C(=N\\NC1=NCCN1)c1sc(-c2ccc(C#CC3CCCC3)cc2)nc1C", ">", 100),
    ("CCCCCC#Cc1ccc(-c2nc(C)c(/C(C)=N/NC3=NCCN3)s2)cc1", ">", 100),
    ("C/C(=N\\NC(=N)N)c1sc(-c2ccc(C#CCC3CCCC3)cc2)nc1C", ">", 100),
    ("C/C(=N\\NC(=N)N)c1sc(-c2ccc(C#CC3CC3)cc2)nc1C", "=", 8),
    ("C/C(=N\\NC1=NCCN1)c1sc(-c2ccc(C#CC(C)(C)C)cc2)nc1C", "=", 4),
]

---

test system: Staphylococcus aureus; assay: Bactericidal activity against methicillin resistant vancomycin-resistant Staphylococcus aureus VRS12 up to 18 hrs by broth microdilution assay; format: functional; conditions: VRS12, 18 h, read-out: MBC99.9
Labelling field: enter satisfied if recorded MBC is less than 4 µg/mL. Enter not satisfied if it equals or exceeds that cut-off.

# item_smiles, target_or_system, class_name
data = [
    ("CCCC#Cc1ccc(-c2nc(C)c(/C(C)=N/NC(=N)N)s2)cc1", "Staphylococcus aureus", "satisfied"),
    ("C/C(=N\\NC(=N)N)c1sc(-c2ccc(C#CC3CCCCC3)cc2)nc1C", "Staphylococcus aureus", "satisfied"),
    ("C/C(=N\\NC(=N)N)c1sc(-c2ccc(C#CCC3CCCC3)cc2)nc1C", "Staphylococcus aureus", "satisfied"),
    ("C/C(=N\\NC(=N)N)c1sc(-c2ccc(C#CC3CC3)cc2)nc1C", "Staphylococcus aureus", "satisfied"),
    ("C/C(=N\\NC1=NCCN1)c1sc(-c2ccc(C#CC3CCCC3)cc2)nc1C", "Staphylococcus aureus", "not satisfied"),
    ("C/C(=N\\NC1=NCCN1)c1sc(-c2ccc(C#CC(C)(C)C)cc2)nc1C", "Staphylococcus aureus", "not satisfied"),
    ("C/C(=N\\NC(=N)N)c1sc(-c2ccc(C#Cc3ccccc3)cc2)nc1C", "Staphylococcus aureus", "satisfied"),
    ("CCCCCC#Cc1ccc(-c2nc(C)c(/C(C)=N/NC(=N)N)s2)cc1", "Staphylococcus aureus", "satisfied"),
    ("CN[C@H](CC(C)C)C(=O)N[C@H]1C(=O)N[C@@H](CC(N)=O)C(=O)N[C@H]2C(=O)N[C@H]3C(=O)N[C@H](C(=O)N[C@H](C(=O)O)c4cc(O)cc(O)c4-c4cc3ccc4O)[C@H](O)c3ccc(c(Cl)c3)Oc3cc2cc(c3O[C@@H]2O[C@H](CO)[C@@H](O)[C@H](O)[C@H]2O[C@H]2C[C@](C)(N)[C@H](O)[C@H](C)O2)Oc2ccc(cc2Cl)[C@H]1O", "Staphylococcus aureus", "not satisfied"),
    ("CCCCCC#Cc1ccc(-c2nc(C)c(/C(C)=N/NC3=NCCN3)s2)cc1", "Staphylococcus aureus", "not satisfied"),
    ("C/C(=N\\NC(=N)N)c1sc(-c2ccc(C#CC3CCCC3)cc2)nc1C", "Staphylococcus aureus", "satisfied"),
]
